Below, each entry is listed alongside its reported EC50.
Biological target: ligand binding domain of the estrogen receptor beta chain (ERβLBD) that contained a point mutation at amino acid residue 418 (pm418) (Homo sapiens, UniProt Q92731)
Assay: ER agonist cell assay (ERβ), Huh-7 co-transfection, luciferase
Conditions: Huh-7 cells co-transfected with pG5luc and ERβLBD(pm418); overnight incubation; luciferase
Respond numerically; units are nM and should not be typed.

Prompt line: Reported EC50 for CC(=O)SCC1(c2onc(-c3ccc(O)cc3)c2-c2ccccc2)CC1 [Example 37] : what is it?
Response line: 302

Prompt line: Another: CC(C)CC(=O)OCC1(c2onc(-c3ccc(O)cc3)c2-c2ccccc2)CC1 [Example 55]
Response line: 23.6

Prompt line: Another: C[C@@H](O)C1(c2onc(-c3ccc(O)cc3)c2-c2ccccc2)CC1 [Example 46]
Response line: 43.2

Prompt line: Another: COCC(=O)OCC1(c2onc(-c3ccc(O)cc3)c2-c2ccccc2)CC1 [Example 53]
Response line: 71.1

Prompt line: Another: CC(C)(O)C1(c2onc(-c3ccc(O)cc3)c2-c2ccccc2)CC1 [Example 49]
Response line: 23.6

###

Below, each entry is listed alongside its reported EC50.
Target: ligand binding domain of the estrogen receptor beta chain (ERβLBD) that contained a point mutation at amino acid residue 418 (pm418) (Homo sapiens, UniProt Q92731)
Assay: ER agonist cell assay (ERβ), Huh-7 co-transfection, luciferase
Settings: Huh-7 cells co-transfected with pG5luc and ERβLBD(pm418); overnight incubation; luciferase
Respond numerically; units are nM and should not be typed.

Solved entries:
> print(dat)
                                   compound  number
1  CC(O)C1(c2onc(-c3ccc(O)cc3)c2-c2ccccc2)CC1 (racemic) [Example 45]    46.7
2  CCCOCC1(c2onc(-c3ccc(O)cc3)c2-c2ccccc2)CC1 [Example 9]    41.3

Prompt line: Reported EC50 for CC(=O)OCC1(c2onc(-c3ccc(O)cc3)c2-c2ccccc2)CC1 [Example 54] : what is it?
Response line: 108

###

Target: ligand binding domain of the estrogen receptor alpha chain (ERαLBD) (Homo sapiens, UniProt P03372)
Assay: ER agonist cell assay (ERα), Huh-7 co-transfection, luciferase
Settings: Huh-7 cells co-transfected with pG5luc and ERαLBD; overnight incubation; luciferase
We label by threshold. Values of EC50 strictly beneath 100 nM are Met. Values of 100 nM and up are Not met.

Example cases with answers are listed next.
> print(dat)
                                   compound  qualitative.label
1  COc1cccc(-c2nnc(C3(c4onc(-c5ccc(O)cc5)c4-c4ccccc4)CC3)o2)c1                Met
2  CC(C)COC(=O)C1(c2onc(-c3ccc(O)cc3)c2-c2ccccc2)CC1                Met
3  Cc1ncccc1OCC1(c2onc(-c3ccc(O)cc3)c2-c2ccccc2)CC1            Not met
4  O=C(OCC1(c2onc(-c3ccc(O)cc3)c2-c2ccccc2)CC1)C1CC1            Not met
5  Oc1ccc(-c2noc(C3(CSc4ccccc4)CC3)c2-c2ccccc2)cc1            Not met

Prompt line: Given Cc1noc(C)c1C(=O)OCC1(c2onc(-c3ccc(O)cc3)c2-c2ccccc2)CC1 , is recorded EC50 strictly lower than 100 nM?
Response line: Met

Prompt line: Another: CCC(O)(CC)C1(c2onc(-c3ccc(O)cc3)c2-c2ccccc2)CC1
Response line: Not met

Prompt line: Another: Oc1ccc(-c2noc(C3(C(O)c4ccccc4)CC3)c2-c2ccccc2)cc1 (racemic)
Response line: Met

###

Target: ligand binding domain of the estrogen receptor beta chain (ERβLBD) that contained a point mutation at amino acid residue 418 (pm418) (Homo sapiens)
Experiment: ER agonist cell assay (ERβ), Huh-7 co-transfection, luciferase
Assay type: cell-based
Settings: percent of the maximum estradiol fold change; Huh-7, pG5luc and ERβLBD(pm418)
The label depends only on ERβ % of Max E2 Response: condition met if it is at least 4%, condition not met if it is smaller.

Example cases with answers are listed next.
> print(dat)
                                   compound  qualitative.label
1  Oc1ccc(-c2noc(C3(C(O)C4CC4)CC3)c2-c2ccccc2)cc1 (racemic) [Example 14]      condition met
2  CC(O)C1(c2onc(-c3ccc(O)cc3)c2-c2ccccc2)CC1 (racemic) [Example 45]      condition met
3  CCC(O)C1(c2onc(-c3ccc(O)cc3)c2-c2ccccc2)CC1 (racemic) [Example 47]      condition met
4  CCOC(=O)C1(c2onc(-c3ccc(O)c(F)c3)c2-c2ccccc2)CC1 [Example 97]  condition not met
5  CNCC1(c2onc(-c3ccc(O)cc3)c2-c2ccccc2)CC1 [Example 103]  condition not met

# evaluate next
Prompt line: API: above_or_equal(metric=ERβ % of Max E2 Response, cutoff=4%) for item COCC1(c2onc(-c3ccc(O)cc3)c2-c2ccccc2)CC1 [Example 8]
Response line: condition not met

###

Below, each entry is listed alongside its reported ERα % of Max E2 Response.
Target: ligand binding domain of the estrogen receptor alpha chain (ERαLBD) (Homo sapiens)
Construct: expressed in transfected cells; host or cells: Huh-7 human hepatoma cells, transient transfection with FuGENE 6
Sequence (P03372 311-547 limits assumed): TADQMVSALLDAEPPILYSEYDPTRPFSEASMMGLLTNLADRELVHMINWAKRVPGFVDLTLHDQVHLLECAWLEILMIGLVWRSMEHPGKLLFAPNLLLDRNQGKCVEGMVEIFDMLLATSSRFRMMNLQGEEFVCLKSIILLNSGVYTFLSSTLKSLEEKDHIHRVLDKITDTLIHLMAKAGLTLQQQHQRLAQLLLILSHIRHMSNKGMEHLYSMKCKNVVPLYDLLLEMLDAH
Test: ER agonist cell assay (ERα), Huh-7 co-transfection, luciferase
Type: cell-based
Details: percent of the maximum estradiol fold change; Huh-7, pG5luc and ERαLBD
Procedure: The compounds ability to mimic the effects of estrogen on the estrogen receptor were determined in a whole cell assay as described immediately below. Experimental Procedure for ER Agonist Cell Assay […] Cells transfected 24 hrs earlier were harvested, counted, and seeded in wells containing compound at a density of 1×10^4 cells/well. […] Plates were incubated at room temperature for 20 minutes and firefly luminescence was measured on a luminometer. […]
Respond numerically; units are % and should not be typed.

Solved entries:
> print(dat)
                                   molecule                               system.name            assay.endpoint  number
1  Oc1ccc(-c2noc(C3(C(O)c4ccccc4)CC3)c2-c2ccccc2)cc1 (racemic)  ligand binding domain of the estrogen receptor alpha chain (ERαLBD) (Homo sapiens)  ERα % of Max E2 Response    63.2
2  CC(C)(C)COC(=O)C1(c2onc(-c3ccc(O)cc3)c2-c2ccccc2)CC1  ligand binding domain of the estrogen receptor alpha chain (ERαLBD) (Homo sapiens)  ERα % of Max E2 Response    20.4
3  Oc1ccc(-c2noc(C3(COCC(F)(F)F)CC3)c2-c2ccccc2)cc1  ligand binding domain of the estrogen receptor alpha chain (ERαLBD) (Homo sapiens)  ERα % of Max E2 Response    23.4

Field: next molecule
Prompt line: Reported ERα % of Max E2 Response for COCC(=O)OCC1(c2onc(-c3ccc(O)cc3)c2-c2ccccc2)CC1 : what is it?
Response line: 85.4

###

Below, each entry is listed alongside its reported EC50.
Biological target: ligand binding domain of the estrogen receptor alpha chain (ERαLBD) (Homo sapiens, UniProt P03372)
Assay: ER agonist cell assay (ERα), Huh-7 co-transfection, luciferase
Conditions: Huh-7 cells co-transfected with pG5luc and ERαLBD; overnight incubation; luciferase
Respond numerically; units are nM and should not be typed.

Solved entries:
> print(dat)
                                smiles.text  unit.annotation  number
1  Oc1ccc(-c2noc(C3(c4nnc(-c5cccc(O)c5)o4)CC3)c2-c2ccccc2)cc1               nM     419
2  CC(C)C(=O)OCC1(c2onc(-c3ccc(O)cc3)c2-c2ccccc2)CC1               nM     138

Field: next compound
Prompt line: Reported EC50 for N#CCC1(c2onc(-c3ccc(O)cc3)c2-c2ccccc2)CC1 : what is it?
Response line: 37.7

###

Target: ligand binding domain of the estrogen receptor beta chain (ERβLBD) that contained a point mutation at amino acid residue 418 (pm418) (Homo sapiens, UniProt Q92731)
Assay: ER agonist cell assay (ERβ), Huh-7 co-transfection, luciferase
Format: cell-based
Conditions: Huh-7 cells co-transfected with pG5luc and ERβLBD(pm418); overnight incubation; luciferase
We label by threshold. Values of EC50 strictly beneath 80 nM are condition met. Values of 80 nM and up are condition not met.

Example cases with answers are listed next.
> print(dat)
                                   molecule  qualitative.label
1  CCCC(=O)OCC1(c2onc(-c3ccc(O)cc3)c2-c2ccccc2)CC1 [Example 58]  condition not met
2  CC(C)(C)COC(=O)C1(c2onc(-c3ccc(O)cc3)c2-c2ccccc2)CC1 [Example 93]  condition not met
3  COCC1(c2onc(-c3ccc(O)cc3)c2-c2ccccc2)CC1 [Example 8]      condition met

Prompt line: Given Oc1ccc(-c2noc(C3(COCC(F)(F)F)CC3)c2-c2ccccc2)cc1 [Example 11] , is recorded EC50 strictly lower than 80 nM?
Response line: condition met

Prompt line: Another: Oc1ccc(-c2nnc(C3(c4onc(-c5ccc(O)cc5)c4-c4ccccc4)CC3)o2)cc1 [Example 124]
Response line: condition not met

Prompt line: Another: Cl.Oc1ccc(-c2noc(C3(CN4CCSCC4)CC3)c2-c2ccccc2)cc1 [Example 32, hydrochloride salt]
Response line: condition met

Prompt line: Another: CC(C)C(=O)OCC1(c2onc(-c3ccc(O)cc3)c2-c2ccccc2)CC1 [Example 52]
Response line: condition not met

Prompt line: Another: Oc1ccc(-c2noc(C3CC3)c2-c2ccccc2)cc1 [Example 35]
Response line: condition not met

Prompt line: Another: O=C(OC1CCCC1)C1(c2onc(-c3ccc(O)cc3)c2-c2ccccc2)CC1 [Example 89]
Response line: condition not met

Prompt line: Another: Oc1ccc(-c2noc(C3(C(O)C4CC4)CC3)c2-c2ccccc2)cc1 (racemic) [Example 14]
Response line: condition not met

Prompt line: Another: Oc1ccc(-c2noc(C3(CSc4ccccc4)CC3)c2-c2ccccc2)cc1 [Example 40]
Response line: condition not met

Prompt line: Another: Cl.Oc1ccc(-c2noc(C3(CNc4ccc5c(c4)CCC5)CC3)c2-c2ccccc2)cc1 [Example 23, hydrochloride salt]
Response line: condition not met

Prompt line: Another: CCCC(O)C1(c2onc(-c3ccc(O)cc3)c2-c2ccccc2)CC1 (racemic) [Example 15]
Response line: condition not met

Prompt line: Another: O=C(OCC1CCC1)C1(c2onc(-c3ccc(O)cc3)c2-c2ccccc2)CC1 [Example 95]
Response line: condition not met

Prompt line: Another: CCOc1ccc(-c2nnc(C3(c4onc(-c5ccc(O)cc5)c4-c4ccccc4)CC3)o2)cc1 [Example 119]
Response line: condition not met

Prompt line: Another: Oc1ccc(-c2noc(C3(c4nnc(-c5cccc(O)c5)o4)CC3)c2-c2ccccc2)cc1 [Example 125]
Response line: condition not met

Prompt line: Another: CC[C@@H](O)C1(c2onc(-c3ccc(O)cc3)c2-c2ccccc2)CC1 [Example 48]
Response line: condition not met
